- TARGET_DESC: T1, human LTBR on cells (human, UniProt P36941 31-435)
- T1 construct: also called recombinant human LTBR CHO cells; CHO-K1 cells overexpressing human LTBR
- ASSAY_DETAILS: FACS CHO-huLTBR, 2.2 µg/ml
Note to self: values exactly at 90000 MFI are 1. So MFI at or above 90000 MFI is 1, below is -1.

BINDER: P1AE9459 (antibody, human IgG1, kappa, L234A L235A, V domains shown, human IgG1 PG LALA; from transgenic rabbit immunization) VH: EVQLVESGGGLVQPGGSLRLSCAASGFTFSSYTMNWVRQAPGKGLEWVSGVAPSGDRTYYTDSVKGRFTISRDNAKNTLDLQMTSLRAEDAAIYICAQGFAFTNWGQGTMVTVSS VL: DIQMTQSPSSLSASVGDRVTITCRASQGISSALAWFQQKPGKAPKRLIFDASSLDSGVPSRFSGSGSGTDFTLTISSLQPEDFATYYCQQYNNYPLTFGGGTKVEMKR
QUALITATIVE_LABEL: -1
//
BINDER: P1AE1873 (CBE11) (antibody, human IgG1, kappa, L234A L235A, V domains shown) VH: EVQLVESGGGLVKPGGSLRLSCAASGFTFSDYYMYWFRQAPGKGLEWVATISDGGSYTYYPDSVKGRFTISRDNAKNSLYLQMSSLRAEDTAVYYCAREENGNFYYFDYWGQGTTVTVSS VL: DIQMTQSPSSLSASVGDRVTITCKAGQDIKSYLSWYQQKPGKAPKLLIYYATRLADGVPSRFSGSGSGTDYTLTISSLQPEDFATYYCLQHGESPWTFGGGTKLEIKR
QUALITATIVE_LABEL: -1
//
BINDER: P1AF0079 (antibody, human IgG1, kappa, L234A L235A, V domains shown, human IgG1 PG LALA; from transgenic rabbit immunization; also called LTBR (0079)) VH: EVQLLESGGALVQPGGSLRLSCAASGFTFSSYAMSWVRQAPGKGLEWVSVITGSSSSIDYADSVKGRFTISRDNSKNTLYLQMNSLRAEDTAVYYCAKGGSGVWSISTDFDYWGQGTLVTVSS VL: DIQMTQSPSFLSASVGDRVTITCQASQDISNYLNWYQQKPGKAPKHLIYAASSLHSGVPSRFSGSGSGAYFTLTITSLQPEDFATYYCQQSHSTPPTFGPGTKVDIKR
QUALITATIVE_LABEL: -1
//
BINDER: P1AF0080 (antibody, human IgG1, kappa, L234A L235A, V domains shown, human IgG1 PG LALA; from transgenic rabbit immunization; also called LTBR (0080)) VH: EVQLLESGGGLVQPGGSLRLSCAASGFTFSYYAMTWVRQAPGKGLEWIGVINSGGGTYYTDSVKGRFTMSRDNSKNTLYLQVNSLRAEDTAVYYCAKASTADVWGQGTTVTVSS VL: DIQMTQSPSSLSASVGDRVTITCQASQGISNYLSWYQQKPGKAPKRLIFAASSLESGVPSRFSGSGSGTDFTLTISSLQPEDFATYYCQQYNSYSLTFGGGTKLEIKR
QUALITATIVE_LABEL: -1

In the following, a different binder is considered.
Qu. Does the binder P1AE9457 (antibody, human IgG1, kappa, L234A L235A, V domains shown, human IgG1 PG LALA; from transgenic rabbit immunization; also called LTBR (9457)) VH: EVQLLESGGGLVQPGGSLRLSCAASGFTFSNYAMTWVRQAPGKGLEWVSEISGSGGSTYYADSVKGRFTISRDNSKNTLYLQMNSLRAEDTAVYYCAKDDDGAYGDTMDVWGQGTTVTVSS VL: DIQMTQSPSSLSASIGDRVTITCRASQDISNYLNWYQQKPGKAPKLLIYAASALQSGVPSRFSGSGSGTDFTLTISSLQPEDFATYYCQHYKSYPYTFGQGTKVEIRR have recorded MFI that is 90000 MFI or more?
Ans. 1
